# tested.system: α2A adrenergic receptor (Homo sapiens)
# Construct: Eurofins Cerep (contract screening)
# Sequence (P08913 1-465): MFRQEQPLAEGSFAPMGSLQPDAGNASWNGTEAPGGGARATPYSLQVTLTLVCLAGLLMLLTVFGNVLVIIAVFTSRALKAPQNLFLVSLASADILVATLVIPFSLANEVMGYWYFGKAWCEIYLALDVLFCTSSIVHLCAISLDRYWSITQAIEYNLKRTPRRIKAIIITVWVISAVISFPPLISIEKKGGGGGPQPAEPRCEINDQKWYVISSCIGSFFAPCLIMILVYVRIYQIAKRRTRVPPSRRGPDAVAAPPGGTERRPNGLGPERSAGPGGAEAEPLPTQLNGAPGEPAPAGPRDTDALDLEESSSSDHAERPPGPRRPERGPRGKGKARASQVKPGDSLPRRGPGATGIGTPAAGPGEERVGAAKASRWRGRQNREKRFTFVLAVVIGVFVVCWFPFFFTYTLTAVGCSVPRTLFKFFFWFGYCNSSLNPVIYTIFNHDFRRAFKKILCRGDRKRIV
# procedure.details: Radioligand binding assay (Eurofins Cerep), [3H]RX 821002 displacement
# protocol.conditions: Table A4, data summary #2; read-out: Alpha2A Ki ± SEM
Param label: returns T when Ki < 1 µM, returns F otherwise, including exact equality.

compound	class
CC[C@@H]1CN2CC[C@@]3(O)C(=Nc4cccc(OC)c43)[C@@H]2C[C@@H]1/C(=C\OC)C(=O)N(C)C	F
CC[C@@H]1CN2CCc3c([nH]c4cccc(OC)c34)[C@@H]2C[C@@H]1/C(=C\OC)C(=O)NC	F
CC[C@@H]1CN2CC[C@@]3(O)C(=Nc4cccc(OC)c43)[C@@H]2C[C@@H]1/C(=C\OC)C(=O)OC [7-Hydroxy Mitragynine, reference compound]	F
CC[C@@H]1CN2CCc3c([nH]c4cccc(OC)c34)[C@@H]2C[C@@H]1/C(=C\OC)C(=O)N(CC)CC	F
CC[C@@H]1CN2CCc3c([nH]c4cccc(OC)c34)[C@@H]2C[C@@H]1/C(=C\OC)C(=O)OC [Mitragynine, mitragynine, reference compound]	F
CC[C@@H]1CN2CCc3c([nH]c4cccc(OC)c34)[C@@H]2C[C@@H]1/C(=C\OC)C(=O)N(C)C1CCCC1	T
CC[C@@H]1CN2CCc3c([nH]c4cccc(OC)c34)[C@@H]2C[C@@H]1/C(=C\OC)C(=O)NC1CCCCC1	T
CCNC(=O)/C(=C/OC)[C@H]1C[C@H]2c3[nH]c4cccc(OC)c4c3CCN2C[C@H]1CC	F
CCCNC(=O)/C(=C/OC)[C@H]1C[C@H]2c3[nH]c4cccc(OC)c4c3CCN2C[C@H]1CC	F
CCCN(C)C(=O)/C(=C/OC)[C@H]1C[C@H]2c3[nH]c4cccc(OC)c4c3CCN2C[C@H]1CC	F
CC[C@@H]1CN2CCc3c([nH]c4cccc(OC)c34)[C@@H]2C[C@@H]1/C(=C\OC)C(=O)n1cccc1	F
CC[C@@H]1CN2CCc3c([nH]c4cccc(OC)c34)[C@@H]2C[C@@H]1/C(=C\OC)C(=O)N1CCCC1	F
CC[C@@H]1CN2CCc3c([nH]c4cccc(OC)c34)[C@@H]2C[C@@H]1/C(=C\OC)C(=O)NC1CCCC1	F
CC[C@@H]1CN2CCc3c([nH]c4cccc(OC)c34)[C@@H]2C[C@@H]1/C(=C\OC)C(=O)N(C)CC	T
CC[C@@H]1CN2CCc3c([nH]c4cccc(OC)c34)[C@@H]2C[C@@H]1/C(=C\OC)C(=O)N1CCCCC1	T
